Please respond with reported Bliss excess for every item in the list.
System: SBC-5 (Small Cell Lung Carcinoma)
Assay: Bliss excess, mean over the matrix (fraction); higher = more synergy
One number for each entry.

Past entries and their recorded results:
# compound, measured-value
data = [
    ("CC1(C)CCC(CN2CCN(c3ccc(C(=O)NS(=O)(=O)c4ccc(NCC5CCOCC5)c([N+](=O)[O-])c4)c(Oc4cnc5[nH]ccc5c4)c3)CC2)=C(c2ccc(Cl)cc2)C1 [Venetoclax] + Cc1cc2ncnn2cc1Nc1ncc2c(n1)n(C1CCOCC1)c(=O)n2C [AZD7648] (first compound max 1 µM, 7x7, partner max 10 µM)", 0.0086),
    ("Cc1cc2ncnn2cc1Nc1ncc2c(n1)n(C1CCOCC1)c(=O)n2C [AZD7648] + CN(C)CCCOc1ccc(-c2ccc3ncc4c(c3c2)n(C2CCOCC2)c(=O)n4C)cn1 [AZD0156] (first compound max 10 µM, 7x7, partner max 1 µM)", 0.0236),
    ("CC1(C)CCC(CN2CCN(c3ccc(C(=O)NS(=O)(=O)c4ccc(NCC5CCOCC5)c([N+](=O)[O-])c4)c(Oc4cnc5[nH]ccc5c4)c3)CC2)=C(c2ccc(Cl)cc2)C1 [Venetoclax] + C[C@@H]1COCCN1C2=NC(=NC(=C2)C3(CC3)[S@](=N)(=O)C)C4=C5C=CNC5=NC=C4 [AZD6738] (first compound max 1 µM, 7x7, partner max 10 µM)", -0.0486),
]

**Query** Report Bliss excess from SBC-5 (Small Cell Lung Carcinoma) testing of CCN(CCO)CCCOc1ccc2c(Nc3cc(CC(=O)Nc4cccc(F)c4)[nH]n3)ncnc2c1 [AZD2811] + C=CCn1c(=O)c2cnc(Nc3ccc(N4CCN(C)CC4)cc3)nc2n1-c1cccc(C(C)(C)O)n1 [AZD1775] (first compound max 1 µM, partner max 1 µM)
**Result** 0.114

---

Please respond with reported Bliss excess for every item in the list.
Tested on: C32 (Melanoma)
Assay: Bliss excess, mean over the matrix (fraction); higher = more synergy
Answers are plain numbers.

# compound, assay-endpoint, measured-value
measured = [
    ("CN(CCO)CC[C@H](CSc1ccccc1)Nc1ccc(S(=O)(=O)NC(=O)c2ccc(N3CCC([C@@H](O)c4ccccc4-c4ccc(Cl)cc4)CC3)cc2)cc1S(=O)(=O)C(F)(F)F [AZD4320] + C1CN(CCC1(C(=O)N[C@@H](CCO)C2=CC=C(C=C2)Cl)N)C3=NC=NC4=C3C=CN4 [Capivasertib] (first compound max 1 µM, 7x7, partner max 3 µM)", "Bliss excess", -0.0564),
]

Moving on to the next compound.
**Query** State its Bliss excess for this compound: COc1cccc(OCCCN)c1-c1cc(Nc2cnc(C#N)cn2)n[nH]1 [Prexasertib] + O=C(c1cc(Cc2n[nH]c(=O)c3ccccc23)ccc1F)N1CCN(C(=O)C2CC2)CC1 [Olaparib] (first compound max 1 µM, 7x7, partner max 10 µM)
**Result** -0.0459

---

Test system: NCI-H2023 (Non-Small Cell Lung Carcinoma)
Assay: combination Emax (second highest fraction inhibited in the dose matrix, 72 h); higher = more inhibition; extreme values may be limits of the assay
assay-endpoint: combination Emax
Give bare numbers.

Past entries and their recorded results:
# molecule, combination Emax
measured = [
    ("Cn1cnc2c(F)c(Nc3ccc(Br)cc3Cl)c(C(=O)NOCCO)cc21 [Selumetinib] + CC(C)n1c(=O)n(C)c2cnc3cc(F)c(-c4ccc(OCCCN5CCCCC5)nc4)cc3c21 [AZD1390] (first compound max 10 µM, 7x7, partner max 0.3 µM)", 0.161),
    ("CS(=O)(=O)CCNCc1ccc(-c2ccc3ncnc(Nc4ccc(OCc5cccc(F)c5)c(Cl)c4)c3c2)o1 [Lapatinib] + NC1(c2ccc(-c3nc4ccn5c(=O)[nH]nc5c4cc3-c3ccccc3)cc2)CCC1 [MK-2206] (first compound max 10 µM, 7x7, partner max 10 µM)", 0.637),
    ("CC1(C)CCC(CN2CCN(c3ccc(C(=O)NS(=O)(=O)c4ccc(NCC5CCOCC5)c([N+](=O)[O-])c4)c(Oc4cnc5[nH]ccc5c4)c3)CC2)=C(c2ccc(Cl)cc2)C1 [Venetoclax] + Cn1cnc2c(F)c(Nc3ccc(Br)cc3Cl)c(C(=O)NOCCO)cc21 [Selumetinib] (first compound max 1 µM, 7x7, partner max 3 µM)", 0.177),
    ("COc1nnc2ccc(N3CCC(c4ccc(OCCN5CCN(C)C(=O)[C@H]5C)cc4)CC3)nn12 [AZD5153] + C=CCn1c(=O)c2cnc(Nc3ccc(N4CCN(C)CC4)cc3)nc2n1-c1cccc(C(C)(C)O)n1 [AZD1775] (first compound max 1 µM, partner max 1 µM)", 0.501),
    ("CC1(C)CCC(CN2CCN(c3ccc(C(=O)NS(=O)(=O)c4ccc(NCC5CCOCC5)c([N+](=O)[O-])c4)c(Oc4cnc5[nH]ccc5c4)c3)CC2)=C(c2ccc(Cl)cc2)C1 [Venetoclax] + C=CCn1c(=O)c2cnc(Nc3ccc(N4CCN(C)CC4)cc3)nc2n1-c1cccc(C(C)(C)O)n1 [AZD1775] (first compound max 1 µM, partner max 1 µM)", 0.713),
    ("COc1cc2ncnc(Nc3ccc(F)c(Cl)c3)c2cc1OCCCN1CCOCC1 [Gefitinib] + CC(C)n1c(=O)n(C)c2cnc3cc(F)c(-c4ccc(OCCCN5CCCCC5)nc4)cc3c21 [AZD1390] (first compound max 10 µM, 7x7, partner max 0.3 µM)", 0.151),
    ("Cc1c2c(nn1C)CSCc1cc(n(C)n1)CSc1cc(c3ccccc3c1)OCCCc1c(C(=O)O)n(C)c3c-2c(Cl)ccc13 [AZD5991] + CC(=O)O[C@H]1C(=O)[C@@]2(C)[C@H]([C@H](OC(=O)c3ccccc3)[C@]3(O)C[C@H](OC(=O)[C@H](O)[C@@H](NC(=O)c4ccccc4)c4ccccc4)C(C)=C1C3(C)C)[C@]1(OC(C)=O)CO[C@@H]1C[C@@H]2O [Paclitaxel] (first compound max 1 µM, 7x7, partner max 3 µM)", 0.537),
    ("Cc1c2c(nn1C)CSCc1cc(n(C)n1)CSc1cc(c3ccccc3c1)OCCCc1c(C(=O)O)n(C)c3c-2c(Cl)ccc13 [AZD5991] + Cc1cc2ncnn2cc1Nc1ncc2c(n1)n(C1CCOCC1)c(=O)n2C [AZD7648] (first compound max 1 µM, 7x7, partner max 10 µM)", 0.441),
]

Moving on to the next molecule.
**Query** State its combination Emax for this molecule: N#Cc1cnc(Nc2cc(NC[C@H]3CNCCO3)c(C(F)(F)F)cn2)cn1 [SRA737] + C=CCn1c(=O)c2cnc(Nc3ccc(N4CCN(C)CC4)cc3)nc2n1-c1cccc(C(C)(C)O)n1 [AZD1775] (first compound max 10 µM, partner max 1 µM)
**Result** 0.594

Origin of measurements: the supplement of paper PMC11061612
